In this section we review reported protein stability index values for a set of sequences.
Assay: protein stability index of a GFP-peptide fusion (yeast GPS) (PSI 1-4); higher = more stable; sorted into four equal gates, so the index is relative within each strain
Details: san1∆
When you answer, write just the number.

Recorded protein stability index, per entry:
sequence_input	protein stability index
VVFAVEKLITSKLLVPQ [PRE10]	2.33
RKANREEKLKANKEKKR [RPL24B]	2.12

What value of protein stability index has been recorded for this entry: QWMVSLFNNHLNGILAD [SNF2]
1.37

Proceed to SVKSARTSTRGRGRGRG [SNF2]
3.19

Proceed to ARYYRTVAVLPPNWKYE [RPS13]
2.18

Proceed to GRLSLRSLTAYAPNLML [QCR10]
1.63

Proceed to SGKARICIVGGYDDFQE [FAS2]
3.36

Proceed to FKNMGNTCYLNATLQAL [UBP6]
1.55

Proceed to LDTFIKIDGNPDELIKA [PRE5]
3.31

Proceed to YSENGKHDSLRYRLLSD [RPN1]
2.51

Proceed to VLKADRSWNEPSKSQTN [YML103C/NUP188]
2.89

Proceed to FGNSLICEDPETAKKIT [SMC2]
2.62

Proceed to KTKWDRKPMGKRINFEK [POP1]
2.75
